# Tested on: MDA-MB-468 complex spheroids with HUVEC/MSC, viability
# assay info: Anticancer human tumor MDA-MB-468 cell line growth inhibition;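 further: spheroids exposed to agents for seven days; 100% = DMSO vehicle control viability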
# study conditions: second compound 1 µM; first compound 0.03 µM; active compounds read low
value kind: viability, T/C (%)
The reply should contain only the number, in %.

{"compound": "NS(=O)(=O)OCC1CC(n2ccc3c(NC4CCc5ccccc54)ncnc32)CC1O (configuration not stated) + NC1CCC(NC2CC2c2ccccc2)CC1", "unit symbol": "%", "viability, T/C": 48.9}

What value of measured viability, T/C is listed for NS(=O)(=O)OCC1CC(n2ccc3c(NC4CCc5ccccc54)ncnc32)CC1O (configuration not stated) + NC1CC1c1ccc(-c2cccc(O)c2)cc1 ?
20.7

Follow-up item: Nc1ccccc1NC(=O)c1ccc(CNC(=O)OCc2cccnc2)cc1 + NC1CCC(NC2CC2c2ccccc2)CC1
90.3

Follow-up item: Nc1ccn(C2OC(CO)C(O)C2(F)F)c(=O)n1 (configuration not stated) + NC1CCC(NC2CC2c2ccccc2)CC1
4.34

Follow-up item: Nc1ccn(C2OC(CO)C(O)C2(F)F)c(=O)n1 (configuration not stated) + NC1CC1c1ccc(-c2cccc(O)c2)cc1
3.61

Follow-up item: CCc1c2c(nc3ccc(O)cc13)-c1cc3c(c(=O)n1C2)COC(=O)[C@]3(O)CC + NC1CCC(NC2CC2c2ccccc2)CC1
2.79

Follow-up item: COc1cc(C2c3cc4c(cc3C(OC3OC5COC(C)OC5C(O)C3O)C3COC(=O)C23)OCO4)cc(OC)c1O (configuration not stated) + NC1CCC(NC2CC2c2ccccc2)CC1
77.2

Follow-up item: CCc1c2c(nc3ccc(O)cc13)-c1cc3c(c(=O)n1C2)COC(=O)[C@]3(O)CC + NC1CC1c1ccc(-c2cccc(O)c2)cc1
0.52
